molecular target: complex II of the electron transport chain (Rattus norvegicus, UniProt P21913+Q641Z9+Q6PCT8+Q920L2); construct: Rat heart mitochondria were isolated by differential centrifugation; from tissue; host or cells: rat heart mitochondria; experiment: Respiratory chain complex II, OCR of isolated rat heart mitochondria (Seahorse); type: biochemical; settings: isolated rat heart mitochondria 10 μg/well, compounds at 30 μM
Sequence (Q920L2 35-656): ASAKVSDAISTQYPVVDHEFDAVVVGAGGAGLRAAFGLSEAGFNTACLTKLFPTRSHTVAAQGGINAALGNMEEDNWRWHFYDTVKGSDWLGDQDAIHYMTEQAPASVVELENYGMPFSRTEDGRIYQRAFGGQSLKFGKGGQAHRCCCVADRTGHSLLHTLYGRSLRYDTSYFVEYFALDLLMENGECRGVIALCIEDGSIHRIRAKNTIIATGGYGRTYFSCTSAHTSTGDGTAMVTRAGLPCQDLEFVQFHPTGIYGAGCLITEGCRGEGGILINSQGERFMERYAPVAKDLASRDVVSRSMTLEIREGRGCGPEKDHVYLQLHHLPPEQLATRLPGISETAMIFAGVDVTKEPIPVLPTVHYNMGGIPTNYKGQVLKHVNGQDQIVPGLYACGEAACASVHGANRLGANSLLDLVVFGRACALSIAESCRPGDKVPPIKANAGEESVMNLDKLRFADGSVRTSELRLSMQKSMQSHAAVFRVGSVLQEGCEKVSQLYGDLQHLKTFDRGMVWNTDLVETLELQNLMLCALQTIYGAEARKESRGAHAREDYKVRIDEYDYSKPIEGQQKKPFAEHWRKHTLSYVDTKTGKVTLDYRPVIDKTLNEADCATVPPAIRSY
Sequence (P21913 31-282): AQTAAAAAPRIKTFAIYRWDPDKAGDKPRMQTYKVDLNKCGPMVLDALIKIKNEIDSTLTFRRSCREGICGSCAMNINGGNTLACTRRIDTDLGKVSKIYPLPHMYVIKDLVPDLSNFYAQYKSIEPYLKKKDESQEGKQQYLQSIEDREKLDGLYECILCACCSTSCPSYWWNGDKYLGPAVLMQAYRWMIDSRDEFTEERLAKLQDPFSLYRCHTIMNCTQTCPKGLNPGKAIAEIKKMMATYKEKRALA
Sequence (Q641Z9 30-169 limits assumed): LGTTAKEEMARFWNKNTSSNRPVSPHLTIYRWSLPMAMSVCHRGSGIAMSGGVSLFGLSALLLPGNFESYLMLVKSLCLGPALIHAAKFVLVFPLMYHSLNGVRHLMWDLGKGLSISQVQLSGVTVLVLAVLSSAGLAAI
Sequence (Q6PCT8 57-159): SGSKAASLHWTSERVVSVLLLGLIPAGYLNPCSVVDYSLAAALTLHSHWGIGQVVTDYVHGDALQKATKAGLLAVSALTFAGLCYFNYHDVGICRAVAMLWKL
Lab note: compare Work of Respiratory Chain Complexes, % Decrease in OCR of Control, II with 30%, writing criterion met if less and criterion not met if equal or more.

Look over these answered cases.
compound	label-class
COc1cccc2c1C(=O)c1c(O)c3c(c(O)c1C2=O)C[C@@](O)(C(C)=O)C[C@@H]3O[C@H]1C[C@H](NC[C@H]2C(=O)O[C@@H]3CC4=CCC[C@H](C)[C@@]4(C)[C@@H](O)[C@@H]32)[C@H](O)[C@H](C)O1 [Compound 7b]	criterion met
COc1cccc2c1C(=O)c1c(O)c3c(c(O)c1C2=O)CC(O)(C(C)=O)CC3OC1CC(NCC2C(=O)OC3CC4(C)CCCC5(C)OC45CC32)C(O)C(C)O1 (mixture of isomers) [Compound 6b]	criterion met
COc1cccc2c1C(=O)c1c(O)c3c(c(O)c1C2=O)C[C@@](O)(C(=O)CO)C[C@@H]3O[C@H]1C[C@H](NC[C@H]2C(=O)O[C@@H]3C[C@@]4(C)CCC=C(C)C4=C[C@@H]32)[C@H](O)[C@H](C)O1 [Compound 8a]	criterion met

Ask: Could you please tell me whether Work of Respiratory Chain Complexes, % Decrease in OCR of Control, II recorded for COc1cccc2c1C(=O)c1c(O)c3c(c(O)c1C2=O)C[C@@](O)(C(=O)CO)C[C@@H]3O[C@H]1C[C@H](NC[C@H]2C(=O)O[C@@H]3C[C@@]4(C)CCC[C@H](C)C4=C[C@@H]32)[C@H](O)[C@H](C)O1 [Compound 2a] is less than 30%?
Reply: criterion not met

Ask: Queued: C=C1CCCC2(C)CC3OC(=O)C(CNC4CC(OC5CC(O)(C(=O)CO)Cc6c(O)c7c(c(O)c65)C(=O)c5c(OC)cccc5C7=O)OC(C)C4O)C3CC12 (stereo not drawn) [Compound 1a]
Reply: criterion met
